Source: ChEMBL document CHEMBL5331095

Biological target: Proprotein convertase subtilisin/kexin type 9 (Homo sapiens) (UniProt Q8NBP7)
Sequence (Q8NBP7 31-152 limits assumed): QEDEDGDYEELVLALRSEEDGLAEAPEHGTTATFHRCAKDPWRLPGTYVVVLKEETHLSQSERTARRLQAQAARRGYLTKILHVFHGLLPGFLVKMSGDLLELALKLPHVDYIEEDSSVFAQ
Sequence (Q8NBP7 153-692 limits assumed): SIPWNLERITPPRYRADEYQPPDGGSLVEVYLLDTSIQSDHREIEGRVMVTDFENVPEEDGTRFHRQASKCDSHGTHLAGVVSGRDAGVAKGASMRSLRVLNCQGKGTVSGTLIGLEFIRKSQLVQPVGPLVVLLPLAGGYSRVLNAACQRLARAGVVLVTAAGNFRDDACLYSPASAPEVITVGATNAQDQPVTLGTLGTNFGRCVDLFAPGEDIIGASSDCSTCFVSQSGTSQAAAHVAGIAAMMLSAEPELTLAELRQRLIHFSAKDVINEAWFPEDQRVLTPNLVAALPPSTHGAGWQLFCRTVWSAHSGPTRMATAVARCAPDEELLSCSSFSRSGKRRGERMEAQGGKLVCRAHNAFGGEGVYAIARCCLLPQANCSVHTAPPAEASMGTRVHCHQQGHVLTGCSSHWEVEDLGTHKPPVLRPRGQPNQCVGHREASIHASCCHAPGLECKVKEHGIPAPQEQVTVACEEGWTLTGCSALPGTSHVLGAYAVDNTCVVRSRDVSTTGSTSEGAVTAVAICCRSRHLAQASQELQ
Experiment: Inhibition of PCSK9 transcriptional activity in human HepG2 cells stably expressing luciferase reporter plasmid containing PCSK9 promoter assessed as decrease in luciferase activity at 10 ug/ml incubated for 24 hrs by Luciferase assay relative to control
Format: cell-based
Conditions: dose 10.0 µg/ml
Each entry belongs to exactly one class, chosen by where its inhibition falls: range A = under 20%, range B = from 20% up to 50%, range C = 50% and over

Record excerpt, results attached:
smiles_data=COC(=O)CCNc1nc2c(c(=O)n(C)c(=O)n2C)n1Cc1cccc(OC)c1 assayed_target="Proprotein convertase subtilisin/kexin type 9 (Homo sapiens) (UniProt Q8NBP7)" assigned_label="range B"
smiles_data=Cn1c(=O)c2c(nc(NCCO)n2Cc2cc(F)ccc2F)n(C)c1=O assayed_target="Proprotein convertase subtilisin/kexin type 9 (Homo sapiens) (UniProt Q8NBP7)" assigned_label="range C"
smiles_data=Cn1c(=O)c2c(nc(NCCO)n2Cc2cccc(Cl)c2F)n(C)c1=O assayed_target="Proprotein convertase subtilisin/kexin type 9 (Homo sapiens) (UniProt Q8NBP7)" assigned_label="range C"
smiles_data=COc1ccc(Cn2c(NCCO)nc3c2c(=O)n(C)c(=O)n3C)cc1OC assayed_target="Proprotein convertase subtilisin/kexin type 9 (Homo sapiens) (UniProt Q8NBP7)" assigned_label="range A"
smiles_data=Cn1c(=O)c2c(nc(NCCO)n2Cc2ccc(Cl)cc2)n(C)c1=O assayed_target="Proprotein convertase subtilisin/kexin type 9 (Homo sapiens) (UniProt Q8NBP7)" assigned_label="range B"
smiles_data=COc1cccc(Cn2c(NCCCCCCO)nc3c2c(=O)n(C)c(=O)n3C)c1 assayed_target="Proprotein convertase subtilisin/kexin type 9 (Homo sapiens) (UniProt Q8NBP7)" assigned_label="range A"
smiles_data=Cn1c(=O)c2c(nc(NCCO)n2Cc2ccc([N+](=O)[O-])cc2)n(C)c1=O assayed_target="Proprotein convertase subtilisin/kexin type 9 (Homo sapiens) (UniProt Q8NBP7)" assigned_label="range B"
smiles_data=Cn1c(=O)c2c(nc(NCCO)n2Cc2cc(F)cc(F)c2)n(C)c1=O assayed_target="Proprotein convertase subtilisin/kexin type 9 (Homo sapiens) (UniProt Q8NBP7)" assigned_label="range B"

Consider the record given below.
input: Each compound maps to one class by inhibition. Which class for Cn1c(=O)c2c(nc(NCCO)n2Cc2cccc(OC(F)(F)F)c2)n(C)c1=O ?
output: range C
